# target under test: T1, Human MMP-9 catalytic domain (BIOMOL, SE-244) (human, UniProt P14780 107-457, limits assumed)
# T1 construct: domain: catalytic domain; also called Cat-huMMP-9; cat-huMMP-9
# T1 sequence (P14780 107-457 limits assumed): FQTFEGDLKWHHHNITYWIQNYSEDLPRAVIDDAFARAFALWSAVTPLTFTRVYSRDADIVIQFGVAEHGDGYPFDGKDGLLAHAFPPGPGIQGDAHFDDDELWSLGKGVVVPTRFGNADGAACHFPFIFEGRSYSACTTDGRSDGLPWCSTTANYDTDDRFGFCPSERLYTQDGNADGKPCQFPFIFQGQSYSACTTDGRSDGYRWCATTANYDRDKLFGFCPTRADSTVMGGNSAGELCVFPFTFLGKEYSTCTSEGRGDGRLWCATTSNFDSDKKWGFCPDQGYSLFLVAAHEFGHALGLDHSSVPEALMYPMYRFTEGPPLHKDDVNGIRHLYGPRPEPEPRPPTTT
# test: Ki,app, enzyme inhibition assay (fluorogenic peptide substrate), small-scale sFab
Reported Ki values follow for various binders
Numbers only here, please. The scale is nM.

Study these solved cases before continuing.
binder="M0272-H08 (Fab, V domains shown, sFab; variable domains only; also called M272-H08) VH: EVQLLESGGGLVQPGGSLRLSCAASGFTFSAYDMWWVRQAPGKGLEWVSVIYPSGGTTFYADSVKGRFTISRDNSKNTLYLQMNSLRAEDTAVYYCAKDRAYGDYVGWNGFDYWGQGTLVTVSS VL: DIQMTQSPATLSLSPGERATLSCRASQSISSFLAWYQQKPGQAPRLLIYDASYRATGIPARFSGSGSGTDFTLTISSLEPEDYAVYYCQQRGNWPITFGQGTRLEIK" observed=0.4
binder="M0276-F11 (Fab, V domains shown, sFab; variable domains only; also called M276-F11) VH: EVQLLESGGGLVQPGGSLRLSCAASGFTFSWYDMWWVRQAPGKGLEWVSVIYSSGGPTFYADSVKGRFTISRDNSKNTLYLQMNSLRAEDTAVYYCAKDRAYGDYVGWNGFDYWGQGTLVTVSS VL: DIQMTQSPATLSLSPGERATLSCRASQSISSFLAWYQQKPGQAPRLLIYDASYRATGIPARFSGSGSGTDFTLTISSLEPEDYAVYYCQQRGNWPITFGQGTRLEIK" observed=0.2

Here is the next item to consider.
**Q:** So what's the measured Ki for this one? M0273-A11 (Fab, V domains shown, sFab; variable domains only; also called M273-A11) VH: EVQLLESGGGLVQPGGSLRLSCAASGFTFSRYDMWWVRQAPGKGLEWVSVISPSGGATFYADSVKGRFTISRDNSKNTLYLQMNSLRAEDTAVYYCAKDRAYGDYVGWNGFDYWGQGTLVTVSS VL: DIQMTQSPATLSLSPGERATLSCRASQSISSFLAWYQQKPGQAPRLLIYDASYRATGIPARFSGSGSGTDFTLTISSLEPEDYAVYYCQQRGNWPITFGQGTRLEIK
**A:** 0.6
